# system: T1, human ROR2 expressed on the cell surface (human, UniProt Q01974 34-943)
# T1 construct: Endogenous ROR2 of human tumour cell lines; also called cell surface ROR2; ROR2 on tumour cell lines
# T1 sequence (Q01974 34-943 limits assumed): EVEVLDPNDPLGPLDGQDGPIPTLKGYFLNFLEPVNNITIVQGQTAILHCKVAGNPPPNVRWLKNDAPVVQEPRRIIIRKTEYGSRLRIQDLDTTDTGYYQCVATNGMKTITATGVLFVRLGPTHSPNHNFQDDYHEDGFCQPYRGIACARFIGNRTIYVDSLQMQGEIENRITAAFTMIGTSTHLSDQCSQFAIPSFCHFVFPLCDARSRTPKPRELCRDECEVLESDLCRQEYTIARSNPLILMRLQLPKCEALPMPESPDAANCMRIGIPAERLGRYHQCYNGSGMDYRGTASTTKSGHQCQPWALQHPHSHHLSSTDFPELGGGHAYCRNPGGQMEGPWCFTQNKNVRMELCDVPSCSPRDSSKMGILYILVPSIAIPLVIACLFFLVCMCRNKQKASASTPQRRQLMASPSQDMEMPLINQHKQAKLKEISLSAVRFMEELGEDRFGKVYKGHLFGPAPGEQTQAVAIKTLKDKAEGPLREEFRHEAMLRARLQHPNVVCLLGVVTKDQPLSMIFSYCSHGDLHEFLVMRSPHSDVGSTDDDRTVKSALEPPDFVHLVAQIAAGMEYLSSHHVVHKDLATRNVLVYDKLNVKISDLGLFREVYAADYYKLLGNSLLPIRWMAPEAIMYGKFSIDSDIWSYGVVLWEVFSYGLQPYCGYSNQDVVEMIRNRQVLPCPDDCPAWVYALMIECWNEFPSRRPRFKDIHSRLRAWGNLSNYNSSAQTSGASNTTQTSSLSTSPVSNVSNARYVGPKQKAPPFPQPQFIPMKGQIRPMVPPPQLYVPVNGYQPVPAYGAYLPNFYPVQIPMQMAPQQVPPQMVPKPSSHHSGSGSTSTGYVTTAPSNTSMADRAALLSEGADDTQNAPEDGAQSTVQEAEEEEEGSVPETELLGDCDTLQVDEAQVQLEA
# protocol-text: flow cytometry, M14 cells (melanoma)
# Set-up: reference not given here
property: binding intensity
Output spec: single numeric token, no unit.

Completed entries (count: 4):
{"columns": ["binder", "property", "observed-result"],
 "data": [
  ["ROR2-23 full length human IgG1 antibody (antibody, V domains shown, The light chain of clone 023 is labelled kappa; also called clone #23; clone #023 IgG1) VH: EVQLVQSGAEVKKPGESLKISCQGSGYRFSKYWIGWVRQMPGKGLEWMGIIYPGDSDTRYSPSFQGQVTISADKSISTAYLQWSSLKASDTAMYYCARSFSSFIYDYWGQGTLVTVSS VL: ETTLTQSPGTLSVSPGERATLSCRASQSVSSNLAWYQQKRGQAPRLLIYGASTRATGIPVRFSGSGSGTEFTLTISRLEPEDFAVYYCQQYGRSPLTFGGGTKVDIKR", "binding intensity", 9],
  ["ROR2-241 full length human IgG1 antibody (antibody, V domains shown) VH: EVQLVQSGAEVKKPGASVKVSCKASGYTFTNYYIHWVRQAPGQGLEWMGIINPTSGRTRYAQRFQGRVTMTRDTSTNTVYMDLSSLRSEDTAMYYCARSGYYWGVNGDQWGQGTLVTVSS VL: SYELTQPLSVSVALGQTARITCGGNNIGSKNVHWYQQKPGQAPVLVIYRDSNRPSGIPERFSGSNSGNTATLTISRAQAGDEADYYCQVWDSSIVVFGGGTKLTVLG", "binding intensity", 12],
  ["ROR2-90 full length human IgG1 antibody (antibody, V domains shown, also called clone #90; antibody #90) VH: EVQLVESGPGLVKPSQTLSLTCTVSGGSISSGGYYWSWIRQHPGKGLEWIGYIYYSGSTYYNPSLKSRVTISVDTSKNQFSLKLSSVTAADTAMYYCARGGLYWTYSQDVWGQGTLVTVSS VL: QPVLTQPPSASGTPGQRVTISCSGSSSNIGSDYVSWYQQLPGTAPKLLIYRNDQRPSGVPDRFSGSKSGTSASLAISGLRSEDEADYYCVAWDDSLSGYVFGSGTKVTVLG", "binding intensity", 17],
  ["ROR2-27 full length human IgG1 antibody (antibody, V domains shown, also called clone #27; clone #027 IgG1) VH: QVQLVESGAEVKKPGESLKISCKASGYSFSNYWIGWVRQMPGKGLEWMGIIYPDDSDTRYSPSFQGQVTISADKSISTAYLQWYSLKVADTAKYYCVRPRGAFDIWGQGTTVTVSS VL: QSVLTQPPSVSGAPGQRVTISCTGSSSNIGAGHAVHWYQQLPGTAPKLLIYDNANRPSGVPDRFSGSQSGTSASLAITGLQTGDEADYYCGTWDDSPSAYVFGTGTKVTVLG", "binding intensity", 5]
]}

Request: Could you share which binding intensity value was measured for ROR2-240 full length human IgG1 antibody (antibody, V domains shown, also called clone #240 IgG1) VH: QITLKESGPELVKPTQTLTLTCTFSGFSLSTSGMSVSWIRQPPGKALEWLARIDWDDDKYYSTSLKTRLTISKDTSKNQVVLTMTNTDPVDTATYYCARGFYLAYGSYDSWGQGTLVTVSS VL: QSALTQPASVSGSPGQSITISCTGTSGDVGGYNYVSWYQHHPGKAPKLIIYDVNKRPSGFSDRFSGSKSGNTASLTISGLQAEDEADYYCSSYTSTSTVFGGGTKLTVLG ?
Result: 4
